- ASSAY SYSTEM: mu receptor (Rattus norvegicus, UniProt P33535)
- Construct: The brain tissue, rat whole brain minus cerebellum for mu was homogenized; from tissue; host or cells: brain minus cerebellum of male Sprague Dawley rats, homogenate fraction
- Sequence (P33535 whole entry): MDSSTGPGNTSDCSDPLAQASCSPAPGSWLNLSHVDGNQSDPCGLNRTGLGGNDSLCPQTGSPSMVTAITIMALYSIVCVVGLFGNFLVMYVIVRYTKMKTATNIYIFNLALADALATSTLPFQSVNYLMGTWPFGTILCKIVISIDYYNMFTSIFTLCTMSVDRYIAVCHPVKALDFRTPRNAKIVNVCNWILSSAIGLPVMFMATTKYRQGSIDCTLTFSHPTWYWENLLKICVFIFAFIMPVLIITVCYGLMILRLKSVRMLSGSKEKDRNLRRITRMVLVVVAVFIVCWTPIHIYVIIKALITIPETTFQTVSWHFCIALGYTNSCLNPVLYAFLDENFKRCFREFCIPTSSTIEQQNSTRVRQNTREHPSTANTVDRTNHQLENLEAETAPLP
- PROCEDURE TEXT: Naloxone [3H] opioid receptor binding assay (mu receptor)
- Design: species or system rat (male Sprague Dawley)
- TEST PARAMETERS: 20 min, pH 7.4, read-out: % displacement at 100 nM
Counter-ions that a name gives are not always drawn.
OBSERVED PROPERTY: inhibition at 0.1 µM (%)
Give the quantity in %, number only.

INPUT: Please look up its inhibition at 0.1 µM: C[C@H]1CN(CCC(NC(=O)CCCC(=O)O)C2CCCCC2)CC[C@@]1(C)c1cccc(O)c1 (stereo in doubt) [Example 5, monohydrochloride monohydrate]
OUTPUT: 100

INPUT: Please look up its inhibition at 0.1 µM: C[C@H]1CN(CCN(C(=O)CCCC(=O)O)C2CCCCC2)CC[C@@]1(C)c1cccc(O)c1 (relative stereo) [Example 23, monohydrate]
OUTPUT: 100

INPUT: Please look up its inhibition at 0.1 µM: CC1CN(CCNC(=O)[C@H](CCCNC(=N)N[N+](=O)[O-])NC(=O)OC(C)(C)C)CCC1(C)c1cccc(O)c1 (stereo partly drawn)
OUTPUT: 85

INPUT: Please look up its inhibition at 0.1 µM: C[C@H]1CN(CCC(CC2CCCCC2)NC(=O)CCCC(=O)O)CC[C@@]1(C)c1cccc(O)c1 (stereo in doubt) [Example 7, monohydrochloride monohydrate]
OUTPUT: 100

INPUT: Please look up its inhibition at 0.1 µM: CCOC(=O)CCCC(=O)NC(CCN1CC[C@@](C)(c2cccc(O)c2)[C@@H](C)C1)CC(C)C (single isomer, unassigned) [Example 3A, monohydrochloride]
OUTPUT: 100

INPUT: Please look up its inhibition at 0.1 µM: `Cc1oc(=O)oc1COC(=O)CCCC(=O)N[C@@H](CC1CCCCC1)CN1CC[C@@](C)(c2cccc(O)c2)[C@@H](C)C1`
OUTPUT: 99

* * *

- ASSAY SYSTEM: mu receptor (Rattus norvegicus, UniProt P33535)
- Construct: The brain tissue, rat whole brain minus cerebellum for mu was homogenized; from tissue; host or cells: brain minus cerebellum of male Sprague Dawley rats, homogenate fraction
- PROCEDURE TEXT: Naloxone [3H] opioid receptor binding assay (mu receptor)
- Design: species or system rat (male Sprague Dawley)
- TEST PARAMETERS: 20 min, pH 7.4, read-out: % displacement at 100 nM
Structures can show the parent of a compound that is named as a salt.
OBSERVED PROPERTY: inhibition at 0.1 µM (%)
Give the quantity in %, number only.

C[C@H]1CN(C[C@H](CC2CCCCC2)NC(=O)CCCC(=O)OCC(=O)N(C)C)CC[C@@]1(C)c1cccc(O)c1	94
C[C@H]1CN(C[C@@H](CC2CCCCC2)NC(=O)CCCC(=O)O)CC[C@@]1(C)c1cccc(O)c1 [Example 46D]	84
COC(=O)[C@H](Cc1ccccc1)NC(=O)CCC(=O)N(CCN1CCC(C)(c2cccc(O)c2)C(C)C1)C1CCCCC1 (stereo partly drawn)	99

INPUT: Please look up its inhibition at 0.1 µM: `CCOC(=O)CCCC(=O)N[C@@H](CC1CCCCC1)CN1CC[C@@](C)(c2cccc(O)c2)[C@@H](C)C1`
OUTPUT: 96

INPUT: Please look up its inhibition at 0.1 µM: `CCCOC(=O)CCCC(=O)N[C@@H](CC1CCCCC1)CN1CC[C@](C)(c2cccc(O)c2)[C@H](C)C1`
OUTPUT: 88

INPUT: Please look up its inhibition at 0.1 µM: CCOC(=O)CC(=O)N[C@H](Cc1ccccc1)CN1CC[C@@](C)(c2cccc(O)c2)[C@@H](C)C1 [Example 10, hydrochloride]
OUTPUT: 94

INPUT: Please look up its inhibition at 0.1 µM: `CCNC(=O)COC(=O)CCCC(=O)N[C@@H](CC1CCCCC1)CN1CC[C@](C)(c2cccc(O)c2)[C@H](C)C1`
OUTPUT: 93

INPUT: Please look up its inhibition at 0.1 µM: CC(C)C(=O)NCCCC(=O)NC(CCCNC(=N)N[N+](=O)[O-])C(=O)NC(CCN1CC[C@@](C)(c2cccc(O)c2)[C@@H](C)C1)c1ccccc1 (single isomer, unassigned; (-))
OUTPUT: 100

INPUT: Please look up its inhibition at 0.1 µM: CNC(=O)CC(=O)N(CCN1CC[C@@](C)(c2cccc(O)c2)[C@@H](C)C1)C1CCCCC1 (relative stereo) [Example 36, monohydrate]
OUTPUT: 99

* * *

- ASSAY SYSTEM: opioid receptor (Mus musculus)
- Construct: Five CF-1 male mice (Charles River, Portage, MI); from tissue; host or cells: living CF-1 male mice (whole animal, endogenous receptor)
- Sequence (P42866 whole entry): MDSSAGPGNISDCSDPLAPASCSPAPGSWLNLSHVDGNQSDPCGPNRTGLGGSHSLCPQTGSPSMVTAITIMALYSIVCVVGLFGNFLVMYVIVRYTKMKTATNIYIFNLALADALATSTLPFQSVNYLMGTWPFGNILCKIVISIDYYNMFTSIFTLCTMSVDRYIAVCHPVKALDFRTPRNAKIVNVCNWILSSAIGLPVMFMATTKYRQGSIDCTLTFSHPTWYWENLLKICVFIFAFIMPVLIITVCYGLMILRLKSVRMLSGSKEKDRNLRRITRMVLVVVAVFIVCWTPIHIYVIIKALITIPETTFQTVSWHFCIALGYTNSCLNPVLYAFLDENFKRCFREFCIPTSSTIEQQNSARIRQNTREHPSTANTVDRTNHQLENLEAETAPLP
- PROCEDURE TEXT: in vivo
- Set-up: species or system CF-1 male mice
- TEST PARAMETERS: sc; mouse writhing test; […]; s.c. 20 min before acetic acid; read-out: AD50 (the source's name)
Counter-ions that a name gives are not always drawn.
Just a reminder that ties go to Criterion not met: only ED50 strictly below 9 mg/kg counts as Criterion met.

Below, 5 compounds whose answers are already recorded.
C[C@H]1CN(CCC(CC2CCCCC2)NC(=O)CCCC(=O)O)CC[C@@]1(C)c1cccc(O)c1 (stereo in doubt) [Example 7, monohydrochloride monohydrate]	Criterion met
CC(=O)NC(CCCNC(=N)N[N+](=O)[O-])C(=O)NCCN1CCC(C)(c2cccc(O)c2)C(C)C1 (stereo not drawn) [Example 42, monohydrate]	Criterion not met
COC1CCC(OC(=O)CCCC(=O)N[C@@H](CC2CCCCC2)CN2CC[C@@](C)(c3cccc(O)c3)[C@@H](C)C2)CC1 (stereo partly drawn)	Criterion not met
CCOC(=O)CCC(=O)N(CCN1CC[C@@](C)(c2cccc(O)c2)[C@@H](C)C1)C1CCCCC1 (relative stereo)	Criterion met
CNC(=O)CNC(=O)CC(=O)N(CCN1CC[C@@](C)(c2cccc(O)c2)[C@@H](C)C1)C1CCCCC1 (relative stereo) [Example 38, monohydrochloride]	Criterion not met

INPUT: Answer whether the compound C[C@H]1CN(CCN(C(=O)CC(=O)O)C2CCCCC2)CC[C@@]1(C)c1cccc(O)c1 (relative stereo) [Example 21, monohydrate] has ED50 strictly less than 9 mg/kg
OUTPUT: Criterion not met

INPUT: Answer whether the compound `CC(C)COC(=O)CCCC(=O)N[C@H](CC1CCCCC1)CN1CC[C@@](C)(c2cccc(O)c2)[C@@H](C)C1` has ED50 strictly less than 9 mg/kg
OUTPUT: Criterion not met

INPUT: Answer whether the compound CC1CN(C[C@H](CC2CCCCC2)NC(=O)CCCC(=O)O)CCC1(C)c1cccc(O)c1 (single isomer, unassigned; (+)) has ED50 strictly less than 9 mg/kg
OUTPUT: Criterion not met

INPUT: Answer whether the compound `Cc1oc(=O)oc1COC(=O)CCCC(=O)N[C@@H](CC1CCCCC1)CN1CC[C@@](C)(c2cccc(O)c2)[C@@H](C)C1` has ED50 strictly less than 9 mg/kg
OUTPUT: Criterion not met

INPUT: Answer whether the compound CC(C)CC(=O)NCCCC(=O)N(CCN1CC[C@@](C)(c2cccc(O)c2)[C@@H](C)C1)C1CCCCC1 (relative stereo) [Example 40, hydrochloride] has ED50 strictly less than 9 mg/kg
OUTPUT: Criterion met

INPUT: Answer whether the compound C[C@H]1CN(CCC(NC(=O)CCCC(=O)O)C2CCCCC2)CC[C@@]1(C)c1cccc(O)c1 (stereo in doubt) [Example 5, monohydrochloride monohydrate] has ED50 strictly less than 9 mg/kg
OUTPUT: Criterion not met

INPUT: Answer whether the compound CCNC(=O)N[C@H](Cc1ccccc1)CN1CC[C@](C)(c2cccc(O)c2)[C@H](C)C1 [Example 17, hydrochloride monohydrate] has ED50 strictly less than 9 mg/kg
OUTPUT: Criterion not met

* * *

- ASSAY SYSTEM: mu receptor (Rattus norvegicus, UniProt P33535)
- Construct: The brain tissue, rat whole brain minus cerebellum for mu was homogenized; from tissue; host or cells: brain minus cerebellum of male Sprague Dawley rats, homogenate fraction
- PROCEDURE TEXT: Naloxone [3H] opioid receptor binding assay (mu receptor)
- Design: species or system rat (male Sprague Dawley)
- TEST PARAMETERS: […]; rat whole brain minus cerebellum; [3H]naloxone 0.5 nM; pH 7.4, 37° C., 20 min; read-out: Ki
Counter-ions that a name gives are not always drawn.
OBSERVED PROPERTY: pKi
FYI, pKi means -log10 of a concentration in mol per litre.

Here is how some compounds turned out for pKi.
CC1CN(C[C@H](CC2CCCCC2)NC(=O)CCCC(=O)O)CCC1(C)c1cccc(O)c1 (single isomer, unassigned; (+))	9.02
C[C@H]1CN(C[C@H](CC2CCCCC2)NC(=O)CCCC(=O)O)CC[C@@]1(C)c1cccc(O)c1 [Example 45D]	9.25

INPUT: Please look up its pKi: CCOC(=O)CCCC(=O)NC(CCN1CC[C@@](C)(c2cccc(O)c2)[C@@H](C)C1)CC(C)C (stereo in doubt) [Example 3B, monohydrochloride]
OUTPUT: 9.07

INPUT: Please look up its pKi: `C[C@H]1CN(C[C@H](CC2CCCCC2)NC(=O)CCCC(=O)OCC(N)=O)CC[C@@]1(C)c1cccc(O)c1`
OUTPUT: 8.54

INPUT: Please look up its pKi: C[C@H]1CN(CCC(NC(=O)CCCC(=O)O)C2CCCCC2)CC[C@@]1(C)c1cccc(O)c1 (stereo in doubt) [Example 5, monohydrochloride monohydrate]
OUTPUT: 9.52

INPUT: Please look up its pKi: C[C@H]1CN(CCCN(C(=O)CCCC(N)=O)C2CCCCC2)CC[C@@]1(C)c1cccc(O)c1 (relative stereo) [Example 37, monohydrochloride monohydrate]
OUTPUT: 9.21

INPUT: Please look up its pKi: C[C@H]1CN(CC(Cc2ccccc2)NC(=O)CCC(=O)O)CC[C@@]1(C)c1cccc(O)c1 (some centres unmarked)
OUTPUT: 7.49

Origin of the recorded values: patent US5159081A
